# test details: optical density change of DRC41 E. coli – strain DRC41, OD650, 24 h, E. coli filamentation project, primary screen (AID 1093);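 also: MC1000 strain lacking acrAB efflux and sulA so SOS filamentation is blocked; test concentration not given here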
# experimental setup: E. coli DRC41 growth, higher = more signal, called active from +8 up or from −8 down
measurement type: z-score

molecule	measurement type	assay value
COc1ccc(CCNC(=O)[C@@H]2c3ccccc3C(=O)N(C3CCCCC3)[C@H]2c2ccc(CO)cc2)cc1	z-score	-1.14
Cc1ccc(C(C)CC(O)C2C=CC3C(=O)N(c4ccccc4)C(=O)C3N2Nc2ccccc2)o1 (configuration not stated)	z-score	-0.866
CCOC(=O)C1=CC[C@@H](c2ccccc2F)N(S(=O)(=O)c2ccc(C)cc2)[C@H]1c1ccccc1	z-score	-0.818
CCC1=C2CN(Cc3ccccc3)[C@@H](C(=O)Cc3ccccc3)C2C=CCC1 (some centres not stated)	z-score	0.673
CC1=C2[C@@H](CCc3ccccc3)OB(O)C[C@@H]2[C@@H]2C(=O)N(Cc3ccccc3)C(=O)[C@@H]2C1	z-score	-0.116
CCCN1C(=O)[C@@]2(Cc3ccccc31)N=C(c1ccc(OCCCO)cc1)O[C@H]2c1ccccc1	z-score	-0.0139
Cc1ccc(S[C@]2(C(=O)NCc3ccccc3)CC(=O)N(C3CCCCC3)[C@@H]2c2ccc(CO)cc2I)cc1	z-score	-0.455
Cc1ccc(S[C@]2(C(=O)NCC(F)(F)F)CC(=O)N(Cc3cc(C(F)(F)F)cc(C(F)(F)F)c3)[C@@H]2c2ccc(CO)cc2)cc1	z-score	-0.002
CCCCNC(=O)c1ccc(C#CC(C)(C)C)c(OC(C)=O)c1	z-score	1.05
COCCCNC(=O)[C@@]1(CCC(=O)OC(C)(C)C)N=C(c2ccc(OCCCO)cc2)O[C@H]1c1ccccc1N=[N+]=[N-]	z-score	1.21
C=CCN1Cc2ccccc2[C@@H]2OC(c3ccc(OCCCO)cc3)=N[C@]2(CC=C)C1=O	z-score	0.924
COC(=O)C1=CC(CCCO)=CC(c2cccs2)N(C)C=C1C(=O)OC (configuration not stated)	z-score	0.39
O=C1N(CCS(=O)(=O)c2ccccc2)c2ccccc2[C@H]2OC(c3ccc(OCCCO)cc3)=N[C@@]12Cc1ccccc1	z-score	0.611
CC(CO)N1C(=O)[C@]2(C)C3C(=O)OCCC/C=C\[C@H]3OC23C=CCN(c2ccc(Cl)cc2)C(=O)[C@@H]13 (some centres not stated)	z-score	0.525
CN1C2C=C(CCCO)C(C3C(=O)N(C(N)=O)C(=O)C32)C1C1CC1 (configuration not stated)	z-score	-0.583
C#CCN([C@@H](Cc1ccccc1)C(=O)OC)[C@@H](/C=C/C1CC1)[C@H](O)Cc1ccccc1	z-score	-0.807
[N-]=[N+]=Nc1ccccc1[C@@H]1OC(c2ccc(OCCCO)cc2)=N[C@]1(Cc1ccccc1)C(=O)N1CCCCC1	z-score	0.27
C=CCC(OC(C)=O)[C@@H]1[C@@H](N(Cc2ccc(-c3cccc(C(F)(F)F)c3)o2)C(=O)Cc2ccc(OC)cc2)c2cc(OCCCO)ccc2N1C(=O)c1ccc(-c2ccccc2)cc1 (some centres not stated)	z-score	-0.936
CC1CC/C=C\[C@H]2OC34C=CCN(c5ccc(Cl)cc5)C(=O)[C@H]3N(C(C)CO)C(=O)[C@]4(C)C2C(=O)O1 (some centres not stated)	z-score	0.108
COC(=O)[C@]1(CCS(=O)(=O)c2ccccc2)N=C(c2ccc(OCCCO)cc2)O[C@@H]1c1ccccc1N=[N+]=[N-]	z-score	-1.29
CC(C)(C)OC(=O)COc1cccc(C(=O)CCN2CCOCC2)c1	z-score	0.328
C=C[C@@H](OC)[C@H](OC(=O)Nc1ccc(OC)cc1)c1ccc(O)c(F)c1	z-score	1.19
CCCCC[C@H]1OC[C@@]23C=C(Br)[C@@H](CC12)[C@@]1(CO1)C3=O (some centres not stated)	z-score	-0.971
O=c1cccc(-c2ccc([N+](=O)[O-])cc2)o1	z-score	0.188
O=C(NCCN1CCOCC1)[C@@H]1c2ccccc2C(=O)N(Cc2ccccc2Cl)[C@H]1c1ccc(CO)cc1	z-score	0.561
C=C(COC)/C(=C/C[C@H](OC(=O)c1ccncc1)c1ccccc1OCCO)c1cc(C(=O)OC)ccc1OC	z-score	0.0572
NCCCCCNC(=O)[C@@H]1C[C@@H]2C(=O)N[C@@H](CCCCN)C(=O)N2[C@@H]1c1ccc(O)cc1	z-score	-0.0616
C=CCC(OC(C)=O)[C@@H]1[C@@H](N(Cc2ccc(-c3cccc(C(F)(F)F)c3)o2)C(=O)c2ccc(-c3ccccc3)cc2)c2cc(OCCCO)ccc2N1C(=O)Cc1ccc2ccccc2c1 (some centres not stated)	z-score	-0.898
CN(C)C(=O)[C@@]1(Cc2ccccc2CN=[N+]=[N-])N=C(c2ccc(OCCCO)cc2)O[C@H]1c1ccccc1N=[N+]=[N-]	z-score	0.151
NC(=O)[C@@]1(Cc2ccccc2)COC(c2ccc(OCCCO)cc2)=N1	z-score	1.05
O=C1C2C=CC(C(O)c3ccco3)N(Nc3ccccc3F)C2C(=O)N1c1ccccc1 (configuration not stated)	z-score	-1.47
COCCOC(=O)N1C(=O)[C@@]2(c3cc(C#CCC(C(=O)OC)C(=O)OC)ccc31)[C@H](c1ccc(OCCO)cc1)N1[C@H](c3ccccc3)[C@H](c3ccccc3)OC(=O)[C@H]1[C@@H]2C(=O)N1CCc2cc(OC)c(OC)cc2C1	z-score	0.713
